Data provenance: PubChem BioAssay AID1159580

- test_name: chemical genetic growth profiling, strain panel (AID 1159580);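 further: tested at 20 µM; growth read once vehicle control cultures reached saturation at 30 °C; lower values mean less growth of the strain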
- conditions: S. cerevisiae strains, growth OD, strain wild type
The whole screen tested about 5,500 compounds, of which about 2,000 (36%) were called active. About 18% were inconclusive and are not listed. No stated cut-off is given here; in the data, active means normalized growth mostly below about 0.91 (no sharp cut-off); inconclusive means no clear call, values can overlap the other calls; inactive means mostly above about 0.92. The list shows a part of the results.
Labels: active, inactive

compound	qualitative_label
O=C(O)CSCCOc1ccccc1	inactive
COc1ccc(CC2c3cc(OC)c(OC)cc3CCN2C)cc1OC (stereo not given)	inactive
COc1ccccc1CC(=O)NC1CCN(Cc2ccccc2)CC1	inactive
O[C@H]1C=C2CCN3Cc4cc5c(cc4C(C23)[C@@H]1O)OCO5 (stereo not given in full)	active
COc1c(CC=C(C)C)c2c(c3oc(=O)c(-c4ccc(OC(C)=O)cc4)c(OC(C)=O)c13)C=CC(C)(C)O2	inactive
COc1ccc2c(c1)OC[C@@H](Cc1ccc(OC)c(OC)c1)[C@@H]2O	inactive
CC(=C(CCOP(=O)(O)O)SC(=O)c1ccccc1)N(C=O)Cc1cnc(C)nc1N	inactive
Cc1cc(=O)n2c(-c3ccc(Cl)cc3)csc2n1	inactive
CN(C)/C=C(\C#N)C(=O)Nc1ccc(F)c(Cl)c1	inactive
CCCCCCCCCCCCC[N+](C)(C)Cc1ccccc1	active
Cc1cc(C)c2c(-n3cccc3)c(C(=O)c3ccc(Cl)cc3)sc2n1	inactive
COC(=O)c1c(Cl)c(Cl)c(C(=O)OC)c(Cl)c1Cl	inactive
NC(=O)c1ncn([C@@H]2O[C@H](CO)[C@@H](O)[C@H]2O)c1O	inactive
CCCCCC(=O)O[C@]1(C(C)=O)CCC2C3CCC4=CC(=O)CC[C@]4(C)C3CC[C@@]21C (stereo not given in full)	inactive
COC(=O)c1c(C)[nH]c(C)c1C(C)=O	inactive
